TGI values, listed per item
Test system: TK-10 renal
assay_comment: NCI tumour cell line growth inhibition, 48 h

// below: answered compounds
{"compound": "Cc1ccc(S(=O)(=O)NCCSS(=O)(=O)c2ccc(C)cc2)cc1", "reported_value": "> 100 µM"}
{"compound": "CON", "reported_value": "> 100 µM"}

Query COc1cc2c3c(c1O)C1(C=CC(=O)C=C1)CC3N(C)CC2 (stereo not drawn) yields TGI of 41.7 µM

Query COc1ccc(-n2c(=O)n(C)c(=O)n2-c2c(C)c(C)c(C)c(C)c2C)cc1 yields TGI of > 100 µM

Query CCCCCc1c(C)[nH]c(/C=c2\[nH]/c(=C3/C=c4ccccc4=N3)cc2OC)c1C yields TGI of 0.716 µM
